Molecular target: SARS CoV-2 spike trimer protein from the parental Wuhan-Hu-1 isolate (extracellular domain, furin-cl (SARS-CoV-2 (Wuhan-Hu-1)))
Test: ELISA, spike protein coated, IgG detected with anti-human Fc-HRP
pEC50: −log10 of the molar value.
Measurement name: pEC50

[[record]]
binder = "R2F12 ultralong CDR3 chimeric bovine-human IgG1 antibody (antibody) VH: QVQLRESGPSLVKPSQTLSLTCTVSGFSLSDKAVGWVRRAPGKALEWLGSIDTGGMTGYNPGLKSRLSITKDNSKSQVSLSVNSVTTEDSATYYCATVDQKTKNACPDDFDYRCSCIGGCGCARKGCVGPLCCRSDLGGYLTDSPAYIYEWYIDLWGQGLLVTVSS VL: QAVLNQPSSVSGSLGQRVSITCSGSSSNVGNGYVSWYQLIPGSAPRTLIYGDTSRASGVPDRFSGSRSGNTATLTISSLQAEDEADYFCASAEDSSSNAVFGSGTTLTVL"
measurement_name = "pEC50"
measured_value = 10.30

